Reported TGI values follow for various compounds
tested on: OVCAR-5 ovarian; assay: NCI tumour cell line growth inhibition, 48 h
measured_attribute: TGI

smiles_entry=COc1ccc(NC(=O)CC(=O)N/N=C/c2ccc(N(CCC#N)S(C)(=O)=O)cc2)cc1 observed_measurement="> 100 µM"
smiles_entry=c1ccc(CCCCNCc2cc(CNCCCCc3ccccc3)cc(CNCCCCc3ccccc3)c2)cc1 observed_measurement="3.22 µM"
smiles_entry=COc1cc2ncn(-c3cc(OCc4cccs4)c(C(N)=O)s3)c2cc1OC observed_measurement="> 25 µM"

###

system: MDA-MB-435; assay: NCI tumour cell line growth inhibition, 48 h
Reported log10(TGI) values follow for various compounds
measured_attribute: log10(TGI) (log10 of the value in µM)

compound="Nc1nc(Cl)c(CO)c(NCC2(CO)CC(CCc3ccccc3)C2)n1 (centres undefined)" system_name=MDA-MB-435 observed_measurement=1.42
compound=COc1ccc2c(c1)-c1nc(=S)n(CCCN(C)C)c3ccc([N+](=O)[O-])c(c13)N2 system_name=MDA-MB-435 observed_measurement=1.22
compound=C/C(Cl)=N/OC(=O)Nc1ccc(S(N)(=O)=O)c(C)c1 system_name=MDA-MB-435 observed_measurement=1.47
compound=Ic1ccc2c(c1)N(c1ccccc1)c1cc(N=c3ccc4nc5ccc(I)cc5n(-c5ccccc5)c-4c3)ccc1N2 system_name=MDA-MB-435 observed_measurement=1.97
compound=CC(=O)c1sc2c(c1OC(=O)c1ccco1)c(=O)n(-c1ccccc1)c(=S)n2-c1ccccc1 system_name=MDA-MB-435 observed_measurement=1.79
compound="CCCCCCCCCCCCN(CC(O)C(O)C(OC1OC(CO)C(O)C(O)C1O)C(O)CO)C(=O)CCCCCCCCCCC (centres undefined)" system_name=MDA-MB-435 observed_measurement=1.49
compound="NC(=O)NS(=O)(=O)c1ccc(N2N=C(C(F)(F)F)CC2c2cc(C(F)(F)F)cc(C(F)(F)F)c2)cc1 (centres undefined)" system_name=MDA-MB-435 observed_measurement=0.85
compound="Nc1nc(I)nc2c1ncn2C1OC(COS(N)(=O)=O)C(O)C1O (centres undefined)" system_name=MDA-MB-435 observed_measurement=-1.86
compound="Cc1cc(Cl)cc2c1NC(=O)C2(O)CC(=O)c1ccco1 (centres undefined)" system_name=MDA-MB-435 observed_measurement=1.15
compound=COc1cc2ncnc(Nc3cccc(Cl)c3)c2cc1OC system_name=MDA-MB-435 observed_measurement=1.53
compound="CC(C)(C)OC(=O)CN1C(=O)CC1CC(=O)c1ccccc1 (centres undefined)" system_name=MDA-MB-435 observed_measurement=1.61
compound="O=C(CC1C(=O)NN(c2ccc(Br)cc2)C1=O)c1cc(O)ccc1O (centres undefined)" system_name=MDA-MB-435 observed_measurement=1.36
compound="N#CSC1CCCCNC1=O (centres undefined)" system_name=MDA-MB-435 observed_measurement=1.54
compound=O=C(CCc1nnc2sc(-c3ccc(Cl)cc3Cl)nn12)c1nc2ccccc2[nH]1 system_name=MDA-MB-435 observed_measurement=0.35
compound=CN1CCN(c2ccc3[nH]c(-c4cc(O)c5c(nc(CO)n5C)c4O)nc3n2)CC1 system_name=MDA-MB-435 observed_measurement=1.68
compound=COc1ccc(C(=O)c2sc(N(C)C)nc2-c2ccccc2)cc1 system_name=MDA-MB-435 observed_measurement=1.72
compound=O=C1Nc2ccccc2C1(c1ccc(O)cc1)c1ccc(O)cc1 system_name=MDA-MB-435 observed_measurement=1.85
compound=O=C(O)/C=C(\c1nc2ccc([N+](=O)[O-])cc2[nH]1)c1cc(Cl)ccc1O system_name=MDA-MB-435 observed_measurement=1.54
compound=O=S(=O)(SC1=NCCN1)c1ccc2ccccc2c1 system_name=MDA-MB-435 observed_measurement=1.63
compound="CC(C)(C)C(=O)OCOP(=O)(OCOC(=O)C(C)(C)C)OCC1OC(n2ccc(=O)[nH]c2=O)C(N=[N+]=[N-])C1O (centres undefined)" system_name=MDA-MB-435 observed_measurement=1.19
